B1: C1orf137 (parent)
chain: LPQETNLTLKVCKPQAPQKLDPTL

variants of: B1; assay: protein stability index of a GFP-peptide fusion (GPS, HEK-293T) (PSI 1-6); higher = more stable; settings: c terminus: a fixed tail appended;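 further: lentivirally expressed fusions sorted by FACS into six bins by GFP to DsRed ratio, PSI derived from sequencing read proportions per bin multiplied by bin number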
quantity_measured: protein stability index
Please respond with just the number, no unit label.

>  <mut>
P2K

>  <protein stability index>
3.06

$$$$

Dear colleague, I am looking for the recorded protein stability index of the following variant: K13M
3.05

Dear colleague, I am looking for the recorded protein stability index of the following variant: K13R
3.01

Dear colleague, I am looking for the recorded protein stability index of the following variant: T8Y
2.98
